Target: T1, Human ACVR2A (human, UniProt P27037 20-135, limits assumed); also: test concentration or dose not given here
T1 construct: also called activin receptor, type II A
T1 sequence (P27037 20-135 limits assumed): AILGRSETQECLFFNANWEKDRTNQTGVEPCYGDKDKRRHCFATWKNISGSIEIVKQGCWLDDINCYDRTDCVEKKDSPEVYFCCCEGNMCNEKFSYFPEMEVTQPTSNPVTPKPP
Assay: ELISA
Readings of optical density for the listed binders
Please reply with the bare figure in OD and do not write the unit itself.

Recorded optical density of 365_H06 (antibody, V domains shown, VH/VL only) VH: EVQLLESGGGLVQPGGSLRLSCAASGFTFSSYGMNWVRQAPGKGLEWVSGINYNSGYTGYADSVKGRFTISRDNSKNTLYLQMNSLRAEDTAVYYCARSANWHDTALDYWGQGTLVTVSS VL: DIQMTQSPSSLSASVGDRVTITCRASQSISSYVNWYQQKPGKAPKLLIYAATSRASGVPSRFSGSGSGTDFTLTISSLQPEDFATYYCQQSYSTPLTFGGGTKVEIK , please.
2.24

Field entry: 370_E05 (antibody, V domains shown, VH/VL only) VH: EVQLLESGGGLVQPGGSLRLSCAASGFTFSSYGMNWVRQAPGKGLEWVSNINYNGGYKGYADSVKGRFTISRDNSKNTLYLQMNSLRAEDTAVYYCARGATWHDTHLDYWGQGTLVTVSS VL: DIQMTQSPSSLSASVGDRVTITCRASQSISTYLNWYQQKPGKAPKLVIYAVTSRASGVPSRFSGSGSGTDFTLTISSLQPEDFATYYCQQSYNSPLTFGGGTKVEIK
2.58
